Hey, just so you know, these numbers are from patent US20190367631A1.

Recorded kon by entry
Target: T1, human MSR1 extracellular domain expressed with a N-terminal nonahistidine tag (His9-hMSR1); R&D Systems, Cat … (human, UniProt P21757 77-451)
T1 construct: extracellular domain; Bought reagent; also called His-hMSR1; 9xHis-hMSR1
T1 sequence: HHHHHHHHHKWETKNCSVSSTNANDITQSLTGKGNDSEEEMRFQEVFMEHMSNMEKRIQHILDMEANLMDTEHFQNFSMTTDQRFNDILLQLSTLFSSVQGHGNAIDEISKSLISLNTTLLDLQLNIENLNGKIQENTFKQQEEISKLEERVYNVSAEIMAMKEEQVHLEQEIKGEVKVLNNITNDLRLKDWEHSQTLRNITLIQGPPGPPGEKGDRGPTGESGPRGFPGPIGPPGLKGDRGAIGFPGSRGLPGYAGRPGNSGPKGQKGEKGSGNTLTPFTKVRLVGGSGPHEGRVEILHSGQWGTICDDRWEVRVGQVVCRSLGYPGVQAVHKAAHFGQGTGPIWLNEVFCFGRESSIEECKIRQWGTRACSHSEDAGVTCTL
Assay: SPR Biacore T200, 25 C, antibody captured by anti-human Fc, His9-hMSR1 injected;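 also: running buffer HBS-ET pH 7.4, rates from sensorgrams fitted to a 1:1 model including mass transport limitation, KD and half-life derived from the kinetic constants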
Please append the unit to your numeric answer.

Would you please look over these solved cases?
H1H27754P-N297Q (antibody, human IgG1, V domains shown, human IgG1 Fc with N297Q (EU)) VH: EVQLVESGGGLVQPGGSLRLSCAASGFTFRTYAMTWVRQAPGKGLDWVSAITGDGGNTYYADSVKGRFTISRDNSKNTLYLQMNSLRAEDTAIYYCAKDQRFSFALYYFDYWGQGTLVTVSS VL: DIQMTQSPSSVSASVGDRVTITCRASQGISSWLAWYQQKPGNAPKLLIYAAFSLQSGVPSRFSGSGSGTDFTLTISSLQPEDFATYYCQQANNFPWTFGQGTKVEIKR ... 200000 M⁻¹ s⁻¹
H1H27729P-N297Q (antibody, human IgG1, V domains shown, human IgG1 Fc with N297Q (EU)) VH: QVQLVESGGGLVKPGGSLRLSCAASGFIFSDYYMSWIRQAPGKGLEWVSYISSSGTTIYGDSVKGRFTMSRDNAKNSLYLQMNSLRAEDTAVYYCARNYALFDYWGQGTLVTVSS VL: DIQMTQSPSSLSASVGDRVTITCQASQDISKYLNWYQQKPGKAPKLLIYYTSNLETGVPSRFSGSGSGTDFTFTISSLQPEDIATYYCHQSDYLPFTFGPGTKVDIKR ... 105000 M⁻¹ s⁻¹

// next item, kon requested
Problem: Consider the binder H1H27739P-N297Q (antibody, human IgG1, V domains shown, human IgG1 Fc with N297Q (EU)) VH: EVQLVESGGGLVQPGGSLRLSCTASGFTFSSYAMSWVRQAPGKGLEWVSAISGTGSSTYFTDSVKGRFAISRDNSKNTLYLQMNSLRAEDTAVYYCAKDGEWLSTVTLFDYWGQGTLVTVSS VL: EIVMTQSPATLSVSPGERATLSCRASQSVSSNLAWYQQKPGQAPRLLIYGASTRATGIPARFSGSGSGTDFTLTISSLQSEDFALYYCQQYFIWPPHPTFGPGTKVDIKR . State its measured kon.
Solution: 119000 M⁻¹ s⁻¹
